- MEASUREMENT_PROTOCOL: Quantitative High-Throughput drug screen in 47 multiple myeloma cell lines against the NCATS MIPE library collection: KMM1_JCRB cell viability assay (AID 1918960); also: nearly all actives have a fitted effect of over 30% in size
- CONDITION: KMM1 myeloma viability, CellTiter-Glo ATP luminescence, 48 h; series mostly up to 45.8 µM
Records with an inconclusive call do not appear. Calls of active or inactive are those of the source. Calls follow the shape of the dose curve; as a rule, active = well fitted cell-killing curve with a large enough effect; inconclusive = small, poorly fitted or top-dose-only effect, or effect the other way; inactive = no such curve, though single readings can be large or run the other way.
Assign a class; possible classes are y for active, n for inactive

Take a look at these entries with their results.
molecule=COC[C@H]1OC(=O)c2coc3c2[C@@]1(C)C1=C(C3=O)[C@@H]2CC[C@H](O)[C@@]2(C)C[C@@H]1OC(C)=O class_assignment=y
molecule=O=C1C=CC[C@@H]2[C@H]3CCCN4CCC[C@@H](CN12)[C@@H]34 class_assignment=n

Now turn to the next molecule.
Kindly provide the recorded test outcome for the following molecule: Cc1ccccc1-n1c(Cn2ncc3c(N)ncnc32)nc2cccc(C)c2c1=O
y

###

- EXPERIMENTAL_SYSTEM: N-terminal Xaa-Pro-Lys N-methyltransferase 1 (Homo sapiens)
- MEASUREMENT_PROTOCOL: qHTS Assay for Inhibitors of N-terminal methyltransferase 1 (NTMT1): LOPAC validation of the NTMT1 SAHH-coupled ThioGlo3 Assay (AID 1347143);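 also: SAH from peptide methylation measured as thiol fluorescence via SAHH coupling and ThioGlo3; nearly all actives have a fitted effect of over 70% in size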; also: potency is read from the fitted curve at half-maximal effect
- CONDITION: recombinant NTMT1, SAHH-coupled ThioGlo3 fluorescence; series mostly up to 114 µM
Results filed as inconclusive are left out. The source made the active and inactive calls. Calls follow the shape of the dose curve; as a rule, active = well fitted inhibition curve with a large enough effect; inconclusive = small, poorly fitted or top-dose-only effect; inactive = no such curve, though single readings can be large or run the other way.
MEASURED_ENDPOINT: Potency

compound=C#CCOC(=O)C1=CCCN(C)C1 measured_endpoint=Potency result=inactive
compound=COC(=O)[C@@H](N)CCCN=C(N)N[N+](=O)[O-] measured_endpoint=Potency result=inactive
compound="NC1CCc2cc(O)c(O)cc2C1 (configuration not stated)" measured_endpoint=Potency result="22.4 µM (active)"
compound=Cn1cnc(CCN)c1 measured_endpoint=Potency result=inactive

Request: Potency, test system N-terminal Xaa-Pro-Lys N-methyltransferase 1 (Homo sapiens), entry CC(C)NC(C)Cc1ccc(I)cc1 (configuration not stated)
inactive

Request: Potency, test system N-terminal Xaa-Pro-Lys N-methyltransferase 1 (Homo sapiens), entry CC(C)Oc1cccnc1N(C)C1CCN(Cc2ccccc2)CC1
56.2 µM (active)

Request: Potency, test system N-terminal Xaa-Pro-Lys N-methyltransferase 1 (Homo sapiens), entry CC[C@@H]1C(=O)OC[C@@H]1Cc1cncn1C
inactive

Request: Potency, test system N-terminal Xaa-Pro-Lys N-methyltransferase 1 (Homo sapiens), entry CC(=O)[C@H]1CCC2C3CC[C@H]4C[C@H](O)CC[C@]4(C)C3CC[C@@]21C (some centres not stated)
inactive

Request: Potency, test system N-terminal Xaa-Pro-Lys N-methyltransferase 1 (Homo sapiens), entry CCCCc1ccc(C(=O)O)nc1
inactive

###

- Test system: CP247
- MEASUREMENT_PROTOCOL: qHTS profiling for inhibitors of Plasmodium falciparum proliferation (AID 504749); also: nearly all actives have a fitted effect of over 60% in size
- CONDITION: P. falciparum in erythrocytes, SYBR Green DNA, 72 h; series mostly up to 28.7 µM
Records with an inconclusive call do not appear. The source made the active and inactive calls. Calls follow the shape of the dose curve; as a rule, active = well fitted inhibition curve with a large enough effect; inconclusive = small, poorly fitted or top-dose-only effect; inactive = flat fitted curve, though single readings scatter.
Assign a class; possible classes are active, inactive

Take a look at these entries with their results.
molecule="NC(=O)CN1CC(O)CC1=O (centres undefined)" class_assignment=inactive
molecule=CC(=O)[O][Hg][c]1ccccc1 class_assignment=active

Kindly provide the recorded test outcome for the following molecule: CC(C)NC(C)Cc1ccc(I)cc1 (centres undefined)
inactive

Kindly provide the recorded test outcome for the following molecule: O=C(O)COc1ccccc1
inactive

Kindly provide the recorded test outcome for the following molecule: COC(=O)[C@@H](N)CCCN=C(N)N[N+](=O)[O-]
inactive

Kindly provide the recorded test outcome for the following molecule: C[C@]12CCC(=O)C(O)=C1CC[C@@H]1[C@H]3CCC(=O)[C@@]3(C)CC[C@@H]12
inactive

Kindly provide the recorded test outcome for the following molecule: C1CCC(NC2CCCCC2)CC1
inactive

Kindly provide the recorded test outcome for the following molecule: CN(C)[C@@H]1C(=O)C(C(N)=O)=C(O)[C@@]2(O)C(=O)C3=C(O)c4c(O)cccc4[C@@](C)(O)[C@H]3[C@H](O)[C@@H]12
inactive

Kindly provide the recorded test outcome for the following molecule: Cc1ccc(Cl)c(O)c1
inactive
